Test: gradient 5% acetonitrile 3 min, to 50% in 2 min, to 85% in 15 min, held 3 min, 100 µL/min
Conditions: column: Zorbax Extend-C18 2.1 x 50 mm; eluents: water / acetonitrile, 0.1% formic acid
Recorded RP-LC retention time by entry
A number alone suffices; assume s.

Cc1cc(C)c(NC(=O)Cn2nc3c(N4CCCCCC4)nccn3c2=O)c(C)c1 :: 757
CCn1cnc2c1CN(C(=O)c1ccc3c(c1)OCO3)CC2 :: 564
CC(=O)N1CCc2cc(-c3ccc(C(=O)N4CCN(c5ncccn5)CC4)cc3)ccc21 :: 771
CCN1C(=O)c2c(C(=O)NCc3cccc(F)c3)ncn2CC1(C)C(=O)NC1CCCC1 (stereo not given) :: 762
COc1ccccc1-c1nc2n(n1)C1(CCCCC1)[C@@H]1CCCC[C@@H]1N2C(=O)c1ccco1 :: 1200

[Q] Reported RP-LC retention time, compound Cc1cc2cc(CNC(=O)NC3CC(=O)N(c4ccccc4)C3)ccc2[nH]1 (stereo not given) : ____
[A] 668

[Q] Another: CN(C)c1cc(N2CCCC(NC(=O)Cc3cccs3)C2)ncn1 (stereo not given)
[A] 596
